# Test system: Schistosoma mansoni
# assay.name: Antischistosomal activity against Schistosoma mansoni BH schistosomula assessed as inhibition of parasite motility after 48 hrs by HCS microscopic analysis
# Format: functional, organism-based
Can you tell me EC50 for the items I'm about to list?
Use µM as the unit, but write only the number.

-- ask Which EC50 is reported for this compound? `Cc1noc(/C=C/c2ccccn2)c1[N+](=O)[O-]`
-- reply 3.23

-- ask Item `O=S(=O)(Cc1ccccc1)c1nc2ccccc2s1` has what recorded EC50?
-- reply 2.62

-- ask Consider the compound shown here: O=C(C1CCCCC1)N1CC(=O)N2CCc3ccccc3C2C1 (configuration not stated) [PRAZIQUANTEL] What is its recorded EC50?
-- reply 1.9

---

# assay.name: Cytotoxicity against human WSS1 cells assessed as reduction in cell viability after 48 hrs by resazurin assay
# Type: cell-based
Record form. Attribute: CC50. Fill in for each entry.
The response must be a number in µM with no trailing unit.

-- ask I am curious: what CC50 value has been reported for `COc1ccc(/C=C/[N+](=O)[O-])cc1OC` ?
-- reply 17.5

-- ask Data request, read-out CC50, for `Cc1noc(/C=C/c2ccccn2)c1[N+](=O)[O-]`
-- reply 16.4

-- ask What value of measured CC50 is listed for `O=S(=O)(Cc1ccccc1)c1nc2ccccc2s1` ?
-- reply 28.5

-- ask Given the compound O=C1CC(Sc2nnc[nH]2)C(=O)N1c1ccc(I)cc1 (stereo not given) , what is its reported CC50?
-- reply 133

Each recorded value in this set is attributed to ChEMBL document CHEMBL4425145.
